# TARGET_OR_TEST_SYSTEM: Tie-2 (Homo sapiens, UniProt Q02763)
# Sequence (Q02763 23-1124): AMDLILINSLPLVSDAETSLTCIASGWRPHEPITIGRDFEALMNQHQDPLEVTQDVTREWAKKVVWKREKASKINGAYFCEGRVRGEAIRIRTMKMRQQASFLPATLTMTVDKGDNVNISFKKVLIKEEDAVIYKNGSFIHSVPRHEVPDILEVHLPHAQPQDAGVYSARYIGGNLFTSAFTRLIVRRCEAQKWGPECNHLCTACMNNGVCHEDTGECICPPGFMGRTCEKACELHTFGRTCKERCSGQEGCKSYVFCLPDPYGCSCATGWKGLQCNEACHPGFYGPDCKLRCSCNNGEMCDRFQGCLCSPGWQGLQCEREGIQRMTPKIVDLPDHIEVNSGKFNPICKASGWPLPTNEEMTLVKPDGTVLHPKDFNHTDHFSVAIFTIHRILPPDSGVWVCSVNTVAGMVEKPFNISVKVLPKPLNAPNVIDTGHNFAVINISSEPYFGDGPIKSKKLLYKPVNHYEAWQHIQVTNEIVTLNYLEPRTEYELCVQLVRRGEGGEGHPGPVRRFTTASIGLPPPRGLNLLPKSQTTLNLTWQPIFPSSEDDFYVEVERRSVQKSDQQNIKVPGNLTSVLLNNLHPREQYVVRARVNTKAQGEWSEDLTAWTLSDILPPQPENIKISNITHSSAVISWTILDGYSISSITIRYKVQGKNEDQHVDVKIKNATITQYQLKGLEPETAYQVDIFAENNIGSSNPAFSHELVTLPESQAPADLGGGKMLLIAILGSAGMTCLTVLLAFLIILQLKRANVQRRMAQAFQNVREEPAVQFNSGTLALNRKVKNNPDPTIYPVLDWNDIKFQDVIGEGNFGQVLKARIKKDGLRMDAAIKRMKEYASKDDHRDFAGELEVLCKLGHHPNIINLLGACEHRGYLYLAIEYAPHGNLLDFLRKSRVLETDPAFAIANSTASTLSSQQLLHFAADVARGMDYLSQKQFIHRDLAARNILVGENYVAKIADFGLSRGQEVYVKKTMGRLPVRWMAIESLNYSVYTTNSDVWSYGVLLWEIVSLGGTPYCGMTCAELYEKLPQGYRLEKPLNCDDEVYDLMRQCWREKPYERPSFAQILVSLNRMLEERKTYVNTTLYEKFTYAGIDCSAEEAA
RESULT_TYPE: IC50

Worked cases, answers included:
1) O=C(Nc1nccc(COc2nsnc2N2CCN(C(=O)Nc3cc(C(F)(F)F)cc(C(F)(F)F)c3)CC2)n1)OCCN1CCCCC1 [Example 163] = 50 to 1000 nM
2) Nc1nccc(COc2cccnc2N2CCN(C(=O)NC3CCCCC3)CC2)n1 [Example 206] = 1000 to 10000 nM

Please state, for each entry, its recorded IC50.
1. CN1CCCC(C(=O)Nc2cc(COc3nsnc3N3CCN(C(=O)Nc4cc(C(F)(F)F)cc(C(F)(F)F)c4)CC3)ccn2)C1 (centres unmarked) [Example 143]
2. COC(=O)Nc1cc(COc2cccnc2N2CCN(C(=O)Nc3cccc(OC)c3)CC2)ccn1 [Example 165]
3. Nc1cc(COc2nsnc2N2CCNCC2)ccn1 [Example 102]
4. CCc1cccc(NC(=O)N2CCN(c3ncccc3OC(C)c3ccnc(N)n3)CC2)c1 (centres unmarked) [Example 245]

// result
1: < 50 nM; 2: 50 to 1000 nM; 3: ≥ 10000 nM; 4: < 50 nM

Count: 2. Required value per item: IC50.
1. Nc1nccc(COc2nsnc2N2CCN(C(=O)Nc3cc(C(F)(F)F)cc(Cl)c3F)CC2)n1 [Example 248]
2. CCc1cc(CC)cc(NC(=O)N2CCN(c3ncccc3OCc3ccnc(N)n3)CC2)c1 [Example 189]

// result
< 50 nM
< 50 nM
